# Test system: COLO 205
# assay_name: Cytotoxicity against human COLO205 cells assessed as growth inhibition at 50 uM after 48 hrs by sulforhodamine B assay
# Type: functional
# measurement_parameters: COLO 205, 48 h, read-out: GI
measure_name: inhibition of growth at 50 µM

Guide cases for inhibition of growth at 50 µM, answers given:
[
  {
    "smiles_notation": "CC(=O)n1c2ccccc2c2cc(-c3ccc4ccccc4c3)nnc21",
    "measure_name": "inhibition of growth at 50 µM",
    "test_value": "82%"
  },
  {
    "smiles_notation": "COc1cc(-c2cc3c4c(I)cccc4n(C(C)=O)c3nn2)cc(OC)c1OC",
    "measure_name": "inhibition of growth at 50 µM",
    "test_value": "24%"
  },
  {
    "smiles_notation": "COc1cc(-c2cc3c4c(Cl)cccc4n(C(C)=O)c3nn2)cc(OC)c1OC",
    "measure_name": "inhibition of growth at 50 µM",
    "test_value": "59%"
  },
  {
    "smiles_notation": "CC(=O)n1c2ccccc2c2cc(-c3ccccc3)nnc21",
    "measure_name": "inhibition of growth at 50 µM",
    "test_value": "64%"
  },
  {
    "smiles_notation": "CC(=O)n1c2cccc(Cl)c2c2cc(-c3ccc(Cl)cc3)nnc21",
    "measure_name": "inhibition of growth at 50 µM",
    "test_value": "12%"
  }
]

From here, focus on the item given below.
"COc1ccc(-c2cc3c4c(Br)cccc4n(C(C)=O)c3nn2)cc1OC" yielded inhibition of growth at 50 µM of 21%

====

Each entry below carries its recorded inhibition of growth at 50 µM.
# System: A549
# assay_name: Cytotoxicity against human A549 cells assessed as growth inhibition at 50 uM after 48 hrs by sulforhodamine B assay
# Assay type: functional
# measurement_parameters: A549, 48 h, read-out: GI
The reply should contain only the number, in %.

[
  {
    "smiles_notation": "CC(=O)n1c2cccc(Cl)c2c2cc(-c3ccc4ccccc4c3)nnc21",
    "unit_symbol": "%",
    "test_value": 19
  },
  {
    "smiles_notation": "CC(=O)n1c2cccc(Cl)c2c2cc(-c3ccc[nH]3)nnc21",
    "unit_symbol": "%",
    "test_value": 16
  },
  {
    "smiles_notation": "COc1ccc(-c2cc3c4c(Cl)cccc4n(C(C)=O)c3nn2)cc1",
    "unit_symbol": "%",
    "test_value": 14
  },
  {
    "smiles_notation": "COc1cc(-c2cc3c4c(I)cccc4n(C(C)=O)c3nn2)cc(OC)c1OC",
    "unit_symbol": "%",
    "test_value": 19
  },
  {
    "smiles_notation": "COc1ccc(-c2cc3c4ccccc4n(C(C)=O)c3nn2)cc1OC",
    "unit_symbol": "%",
    "test_value": 12
  },
  {
    "smiles_notation": "CC(=O)n1c2cccc(Cl)c2c2cc(-c3ccc(Cl)cc3)nnc21",
    "unit_symbol": "%",
    "test_value": 5
  }
]

From here, focus on the item given below.
"COc1cc(-c2cc3c4c(Br)cccc4n(C(C)=O)c3nn2)cc(OC)c1OC" yielded inhibition of growth at 50 µM of 17

====

# Tested on: A549
# assay_name: Cytotoxicity against human A549 cells assessed as growth inhibition at 50 uM after 48 hrs by sulforhodamine B assay
# Type: functional
# measurement_parameters: A549, 48 h, read-out: GI
measure_name: inhibition of growth at 50 µM (%)
The reply should contain only the number, in %.

Guide cases for inhibition of growth at 50 µM, answers given:
[
  {
    "smiles_notation": "COc1ccc(-c2cc3c4ccccc4n(C(C)=O)c3nn2)cc1",
    "inhibition of growth at 50 µM, %": 10
  },
  {
    "smiles_notation": "CC(=O)n1c2ccccc2c2cc(-c3cccs3)nnc21",
    "inhibition of growth at 50 µM, %": 10
  },
  {
    "smiles_notation": "CC(=O)n1c2cccc(Br)c2c2cc(-c3cccc4ccccc34)nnc21",
    "inhibition of growth at 50 µM, %": 9
  }
]

From here, focus on the item given below.
"COc1ccc(-c2cc3c4c(Br)cccc4n(C(C)=O)c3nn2)cc1OC" yielded inhibition of growth at 50 µM of 11

====

# tested_target: Tubulin
# assay_name: Inhibition of tubulin (unknown origin) polymerization after 1 hr by spectrophotometry
measure_name: IC50
Phrase the answer as number then unit, nothing more needed.

[
  {
    "smiles_notation": "CC(=O)n1c2ccccc2c2cc(-c3ccc4ccccc4c3)nnc21",
    "IC50": "8.91 µM"
  }
]

"COc1cc(-c2cc3c4ccccc4n(C(C)=O)c3nn2)cc(OC)c1OC" yielded IC50 of 2.41 µM

"COc1ccc(-c2cc3c4ccccc4n(C(C)=O)c3nn2)cc1OC" yielded IC50 of 4.92 µM

"CC(=O)n1c2ccccc2c2cc(-c3cccc4ccccc34)nnc21" yielded IC50 of 8.97 µM

====

# Tested on: COLO 205
# assay_name: Cytotoxicity against human COLO205 cells assessed as growth inhibition at 50 uM after 48 hrs by sulforhodamine B assay
# Type: functional
# measurement_parameters: COLO 205, 48 h, read-out: GI
measure_name: inhibition of growth at 50 µM (%)
The reply should contain only the number, in %.

Guide cases for inhibition of growth at 50 µM, answers given:
[
  {
    "smiles_notation": "COc1cc(-c2cc3c4ccccc4n(C(C)=O)c3nn2)cc(OC)c1OC",
    "unit_symbol": "%",
    "inhibition of growth at 50 µM": 89
  },
  {
    "smiles_notation": "CC(=O)n1c2cccc(Cl)c2c2cc(-c3ccc[nH]3)nnc21",
    "unit_symbol": "%",
    "inhibition of growth at 50 µM": 34
  },
  {
    "smiles_notation": "COc1ccc(-c2cc3c4ccccc4n(C(C)=O)c3nn2)cc1OC",
    "unit_symbol": "%",
    "inhibition of growth at 50 µM": 82
  },
  {
    "smiles_notation": "COc1ccc(-c2cc3c4c(I)cccc4n(C(C)=O)c3nn2)cc1",
    "unit_symbol": "%",
    "inhibition of growth at 50 µM": 9
  },
  {
    "smiles_notation": "COc1ccc(-c2cc3c4c(Br)cccc4n(C(C)=O)c3nn2)cc1",
    "unit_symbol": "%",
    "inhibition of growth at 50 µM": 10
  }
]

From here, focus on the item given below.
The value of inhibition of growth at 50 µM recorded for "CC(=O)n1c2cccc(Cl)c2c2cc(-c3ccc4ccccc4c3)nnc21" when tested on COLO 205 reads 41

====

Each entry below carries its recorded inhibition of growth at 50 µM.
# System: COLO 205
# assay_name: Cytotoxicity against human COLO205 cells assessed as growth inhibition at 50 uM after 48 hrs by sulforhodamine B assay
# Type: functional
# measurement_parameters: COLO 205, 48 h, read-out: GI
The reply should contain only the number, in %.

Guide cases for inhibition of growth at 50 µM, answers given:
[
  {
    "smiles_notation": "CC(=O)n1c2ccccc2c2cc(-c3ccc(Cl)cc3)nnc21",
    "tested_target": "COLO 205",
    "measure_name": "inhibition of growth at 50 µM",
    "unit_symbol": "%",
    "test_value": 35
  },
  {
    "smiles_notation": "CC(=O)n1c2cccc(Cl)c2c2cc(-c3cccc4ccccc34)nnc21",
    "tested_target": "COLO 205",
    "measure_name": "inhibition of growth at 50 µM",
    "unit_symbol": "%",
    "test_value": 40
  },
  {
    "smiles_notation": "CC(=O)n1c2cccc(Cl)c2c2cc(-c3ccccc3)nnc21",
    "tested_target": "COLO 205",
    "measure_name": "inhibition of growth at 50 µM",
    "unit_symbol": "%",
    "test_value": 22
  },
  {
    "smiles_notation": "COc1ccc(-c2cc3c4c(I)cccc4n(C(C)=O)c3nn2)cc1OC",
    "tested_target": "COLO 205",
    "measure_name": "inhibition of growth at 50 µM",
    "unit_symbol": "%",
    "test_value": 14
  },
  {
    "smiles_notation": "CC(=O)n1c2cccc(Br)c2c2cc(-c3ccc4ccccc4c3)nnc21",
    "tested_target": "COLO 205",
    "measure_name": "inhibition of growth at 50 µM",
    "unit_symbol": "%",
    "test_value": 14
  },
  {
    "smiles_notation": "CC(=O)n1c2cccc(Br)c2c2cc(-c3cccc4ccccc34)nnc21",
    "tested_target": "COLO 205",
    "measure_name": "inhibition of growth at 50 µM",
    "unit_symbol": "%",
    "test_value": 12
  },
  {
    "smiles_notation": "CC(=O)n1c2cccc(Cl)c2c2cc(-c3ccc(Br)cc3)nnc21",
    "tested_target": "COLO 205",
    "measure_name": "inhibition of growth at 50 µM",
    "unit_symbol": "%",
    "test_value": 10
  },
  {
    "smiles_notation": "CC(=O)Nc1cccc(-c2cc3c4ccccc4n(C(C)=O)c3nn2)c1",
    "tested_target": "COLO 205",
    "measure_name": "inhibition of growth at 50 µM",
    "unit_symbol": "%",
    "test_value": 47
  },
  {
    "smiles_notation": "COc1ccc(-c2cc3c4c(Cl)cccc4n(C(C)=O)c3nn2)cc1",
    "tested_target": "COLO 205",
    "measure_name": "inhibition of growth at 50 µM",
    "unit_symbol": "%",
    "test_value": 39
  },
  {
    "smiles_notation": "CC(=O)n1c2ccccc2c2cc(-c3cccs3)nnc21",
    "tested_target": "COLO 205",
    "measure_name": "inhibition of growth at 50 µM",
    "unit_symbol": "%",
    "test_value": 69
  }
]

"COc1cc(-c2cc3c4c(Br)cccc4n(C(C)=O)c3nn2)cc(OC)c1OC" yielded inhibition of growth at 50 µM of 36

"CC(=O)Nc1ccccc1-c1cc2c3ccccc3n(C(C)=O)c2nn1" yielded inhibition of growth at 50 µM of 50

"CC(=O)n1c2ccccc2c2cc(-c3ccc([N+](=O)[O-])cc3)nnc21" yielded inhibition of growth at 50 µM of 17

"COc1ccc(-c2cc3c4ccccc4n(C(C)=O)c3nn2)cc1" yielded inhibition of growth at 50 µM of 72

"CC(=O)n1c2ccccc2c2cc(-c3ccc[nH]3)nnc21" yielded inhibition of growth at 50 µM of 68

"CC(=O)n1c2ccccc2c2cc(-c3cccc4ccccc34)nnc21" yielded inhibition of growth at 50 µM of 83

"CC(=O)n1c2ccccc2c2cc(-c3ccc(F)cc3)nnc21" yielded inhibition of growth at 50 µM of 40

"COc1ccc(-c2cc3c4c(Cl)cccc4n(C(C)=O)c3nn2)cc1OC" yielded inhibition of growth at 50 µM of 54

"CC(=O)n1c2ccccc2c2cc(-c3ccc(Br)cc3)nnc21" yielded inhibition of growth at 50 µM of 20
